test target: EGFR^WT (Homo sapiens)
Sequence (P00533 25-1210): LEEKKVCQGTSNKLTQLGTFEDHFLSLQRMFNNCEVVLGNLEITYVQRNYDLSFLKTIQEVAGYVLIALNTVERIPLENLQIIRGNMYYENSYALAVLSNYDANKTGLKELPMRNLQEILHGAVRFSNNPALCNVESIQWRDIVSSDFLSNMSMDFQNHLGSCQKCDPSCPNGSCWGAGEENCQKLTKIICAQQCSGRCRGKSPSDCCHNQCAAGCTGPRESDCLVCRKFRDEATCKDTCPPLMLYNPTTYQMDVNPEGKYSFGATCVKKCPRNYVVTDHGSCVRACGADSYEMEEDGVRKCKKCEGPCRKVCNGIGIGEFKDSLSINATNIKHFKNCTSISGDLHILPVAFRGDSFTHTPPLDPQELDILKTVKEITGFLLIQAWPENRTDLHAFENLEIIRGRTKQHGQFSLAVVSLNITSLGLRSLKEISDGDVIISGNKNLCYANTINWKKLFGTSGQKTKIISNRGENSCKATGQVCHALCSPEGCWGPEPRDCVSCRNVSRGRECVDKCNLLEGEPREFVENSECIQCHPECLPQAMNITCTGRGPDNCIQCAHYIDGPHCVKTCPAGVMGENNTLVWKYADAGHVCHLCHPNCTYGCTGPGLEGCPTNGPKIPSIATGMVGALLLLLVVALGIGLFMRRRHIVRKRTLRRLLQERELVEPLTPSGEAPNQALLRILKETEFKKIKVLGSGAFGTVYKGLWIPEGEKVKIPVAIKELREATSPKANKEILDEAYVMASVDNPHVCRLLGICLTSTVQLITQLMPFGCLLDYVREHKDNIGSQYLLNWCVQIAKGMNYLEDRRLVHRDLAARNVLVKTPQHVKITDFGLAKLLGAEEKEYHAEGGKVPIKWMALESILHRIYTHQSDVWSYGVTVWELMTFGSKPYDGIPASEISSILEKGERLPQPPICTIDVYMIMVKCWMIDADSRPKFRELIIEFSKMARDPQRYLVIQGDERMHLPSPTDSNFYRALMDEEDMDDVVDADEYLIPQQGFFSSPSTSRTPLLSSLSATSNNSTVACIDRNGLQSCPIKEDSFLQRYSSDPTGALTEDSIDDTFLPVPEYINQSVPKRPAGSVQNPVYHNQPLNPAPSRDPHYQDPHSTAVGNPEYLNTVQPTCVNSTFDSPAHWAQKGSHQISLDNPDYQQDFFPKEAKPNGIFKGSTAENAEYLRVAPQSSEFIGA
IC50 under 900 nM gets met, anything at or over 900 nM gets not met.

Here's what some known entries look like.
{"columns": ["compound", "assigned category"],
 "data": [
  ["C=CCn1c(=O)n(CC(=O)Nc2ccc(C(=O)NC)cc2)c(=O)c2cc(I)ccc21", "not met"],
  ["C=CCn1c(=O)n(CC(=O)Nc2ccc(C(=O)NN)cc2)c(=O)c2cc(I)ccc21", "not met"],
  ["CNC(=O)c1ccc(NC(=O)Cn2c(=O)c3cc(I)ccc3n(Cc3ccccc3)c2=O)cc1", "met"],
  ["CCOC(=O)c1ccc(NC(=O)Cn2c(=O)c3cc(I)ccc3n(Cc3ccccc3)c2=O)cc1 [Compound 14b]", "met"],
  ["NNC(=O)c1ccc(NC(=O)Cn2c(=O)c3cc(I)ccc3n(Cc3ccccc3)c2=O)cc1", "met"]
]}

Could you now consider this next compound?
Exercise: Could you please tell me whether IC50 recorded for C=CCn1c(=O)n(CC(=O)Nc2ccc(-c3nnc(C)o3)cc2)c(=O)c2cc(I)ccc21 is less than 900 nM?
Key: met

* * *

IC50: recorded values
System: MCF-7 cell line
test details: MTT cytotoxicity assay, MCF-7
Assay type: cell-based
experimental setup: Homo sapiens, MCF7, read-out: IC50 MCF-7
I only need the number, in µM, no unit after it.

{"columns": ["compound", "IC50 / µM"],
 "data": [
  ["C=CCn1c(=O)n(CC(=O)Nc2ccc(-c3nnc(C)o3)cc2)c(=O)c2cc(I)ccc21", 10.4],
  ["C=CCn1c(=O)n(CC(=O)Nc2ccc(C(=O)NN)cc2)c(=O)c2cc(I)ccc21", 15.2]
]}

Per the records, this compound ( C=CCn1c(=O)n(CC(=O)Nc2ccc(-n3nc(C)cc3C)cc2)c(=O)c2cc(I)ccc21 ) has IC50 equal to 7.85

Per the records, this compound ( CCOC(=O)c1ccc(NC(=O)Cn2c(=O)c3cc(I)ccc3n(Cc3ccccc3)c2=O)cc1 [Compound 14b] ) has IC50 equal to 7.03

* * *

test target: EGFR^WT (Homo sapiens)
IC50: recorded values
I only need the number, in nM, no unit after it.

Answered cases to consult:
{"columns": ["compound", "outcome measure", "observed measurement"],
 "data": [
  ["Cc1cc(C)n(-c2ccc(NC(=O)Cn3c(=O)c4cc(I)ccc4n(Cc4ccccc4)c3=O)cc2)n1 [Compound 18]", "IC50", 170],
  ["C=CCn1c(=O)n(CC(=O)Nc2ccc(C(=O)OC)cc2)c(=O)c2cc(I)ccc21 [Compound 6a]", "IC50", 1150],
  ["C=CCn1c(=O)n(CC(=O)Nc2ccc(-n3nc(C)cc3C)cc2)c(=O)c2cc(I)ccc21 [Compound 10]", "IC50", 380],
  ["COC(=O)c1ccc(NC(=O)Cn2c(=O)c3cc(I)ccc3n(Cc3ccccc3)c2=O)cc1 [Compound 14a]", "IC50", 600]
]}

The recorded IC50 with EGFR^WT (Homo sapiens) for Cc1nnc(-c2ccc(NC(=O)Cn3c(=O)c4cc(I)ccc4n(Cc4ccccc4)c3=O)cc2)o1 [Compound 17] was 150

The recorded IC50 with EGFR^WT (Homo sapiens) for O=C(Cn1c(=O)c2cc(I)ccc2n(Cc2ccccc2)c1=O)Nc1ccc(-c2nnc(S)o2)cc1 [Compound 16] was 330

The recorded IC50 with EGFR^WT (Homo sapiens) for C=CCn1c(=O)n(CC(=O)Nc2ccc(C(=O)NCC)cc2)c(=O)c2cc(I)ccc21 [Compound 5b] was 1000

The recorded IC50 with EGFR^WT (Homo sapiens) for C=CCn1c(=O)n(CC(=O)Nc2ccc(C(=O)OCC)cc2)c(=O)c2cc(I)ccc21 [Compound 6b] was 950

* * *

System: HepG2 cell line
test details: MTT cytotoxicity assay, HepG2
Format: cell-based
experimental setup: VERO IC50 / HepG2 IC50
outcome measure: Selectivity index: fold more toxic against HepG2 than VERO cells
Answer by giving the amount and then stating its unit.

Answered cases to consult:
{"columns": ["compound", "observed measurement"],
 "data": [
  ["Cc1nnc(-c2ccc(NC(=O)Cn3c(=O)c4cc(I)ccc4n(Cc4ccccc4)c3=O)cc2)o1", "8.31 fold"],
  ["CCOC(=O)c1ccc(NC(=O)Cn2c(=O)c3cc(I)ccc3n(Cc3ccccc3)c2=O)cc1 [Compound 14b]", "8.39 fold"],
  ["C=CCn1c(=O)n(CC(=O)Nc2ccc(-n3nc(C)cc3C)cc2)c(=O)c2cc(I)ccc21", "5.91 fold"]
]}

Per the records, this compound ( COC(=O)c1ccc(NC(=O)Cn2c(=O)c3cc(I)ccc3n(Cc3ccccc3)c2=O)cc1 [Compound 14a] ) has Selectivity index: fold more toxic against HepG2 than VERO cells equal to 5.58 fold

* * *

IC50: recorded values
test target: EGFR^T790M (Homo sapiens, UniProt P00533, T790M)
Sequence (P00533 25-1210 T790M): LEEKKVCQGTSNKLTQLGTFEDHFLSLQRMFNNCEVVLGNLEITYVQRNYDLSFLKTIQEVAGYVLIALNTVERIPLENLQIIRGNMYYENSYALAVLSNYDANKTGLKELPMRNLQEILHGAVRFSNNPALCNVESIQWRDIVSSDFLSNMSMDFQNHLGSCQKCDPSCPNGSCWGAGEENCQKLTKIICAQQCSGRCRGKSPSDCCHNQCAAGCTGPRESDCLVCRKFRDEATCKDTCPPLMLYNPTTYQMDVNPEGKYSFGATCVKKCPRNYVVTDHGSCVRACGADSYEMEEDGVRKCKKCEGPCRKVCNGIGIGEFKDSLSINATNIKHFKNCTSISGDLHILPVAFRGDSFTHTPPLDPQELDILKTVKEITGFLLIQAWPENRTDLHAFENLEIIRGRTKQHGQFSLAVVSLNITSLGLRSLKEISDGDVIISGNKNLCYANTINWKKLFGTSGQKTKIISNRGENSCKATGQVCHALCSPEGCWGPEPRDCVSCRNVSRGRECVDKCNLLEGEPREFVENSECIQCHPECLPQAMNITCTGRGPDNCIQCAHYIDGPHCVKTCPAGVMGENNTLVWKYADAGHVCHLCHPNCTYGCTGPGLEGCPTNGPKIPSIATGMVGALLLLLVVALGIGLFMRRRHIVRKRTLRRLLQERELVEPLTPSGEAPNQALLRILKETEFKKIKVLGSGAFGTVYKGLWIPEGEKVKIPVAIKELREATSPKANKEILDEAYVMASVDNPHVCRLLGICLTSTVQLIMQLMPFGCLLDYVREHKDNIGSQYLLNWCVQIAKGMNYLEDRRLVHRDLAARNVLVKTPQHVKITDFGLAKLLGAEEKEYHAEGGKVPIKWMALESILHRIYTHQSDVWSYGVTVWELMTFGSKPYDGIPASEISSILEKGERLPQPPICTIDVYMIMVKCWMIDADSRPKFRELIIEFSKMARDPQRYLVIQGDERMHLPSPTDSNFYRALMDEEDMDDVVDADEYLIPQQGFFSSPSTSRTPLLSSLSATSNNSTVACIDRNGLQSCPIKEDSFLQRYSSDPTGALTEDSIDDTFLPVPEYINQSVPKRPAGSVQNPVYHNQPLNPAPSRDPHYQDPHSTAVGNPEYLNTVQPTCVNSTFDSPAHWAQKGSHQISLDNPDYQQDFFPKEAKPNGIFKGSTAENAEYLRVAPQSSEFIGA
test details: In vitro EGFR^T790M kinase inhibitory assay
experimental setup: HTRF kinase assay, mean ± SD of three separate experiments
I only need the number, in nM, no unit after it.

{"columns": ["molecule", "test target", "measurement units", "IC50"],
 "data": [
  ["Cc1nnc(-c2ccc(NC(=O)Cn3c(=O)c4cc(I)ccc4n(Cc4ccccc4)c3=O)cc2)o1", "EGFR^T790M (Homo sapiens, UniProt P00533, T790M)", "nM", 300],
  ["Cc1cc(C)n(-c2ccc(NC(=O)Cn3c(=O)c4cc(I)ccc4n(Cc4ccccc4)c3=O)cc2)n1", "EGFR^T790M (Homo sapiens, UniProt P00533, T790M)", "nM", 250],
  ["C=CCn1c(=O)n(CC(=O)Nc2ccc(C(=O)OCC)cc2)c(=O)c2cc(I)ccc21", "EGFR^T790M (Homo sapiens, UniProt P00533, T790M)", "nM", 1120]
]}

Next molecule, IC50 to be filled in.
Per the records, this molecule ( CNC(=O)c1ccc(NC(=O)Cn2c(=O)c3cc(I)ccc3n(Cc3ccccc3)c2=O)cc1 ) has IC50 equal to 610

* * *

Tested on: HCT116 cell line
test details: MTT cytotoxicity assay, HCT116
Assay type: cell-based
experimental setup: VERO IC50 / HCT116 IC50
outcome measure: Selectivity index: fold grander lethalness in HCT116 than in VERO cells (fold)
I only need the number, in fold, no unit after it.

{"columns": ["compound", "observed measurement"],
 "data": [
  ["C=CCn1c(=O)n(CC(=O)Nc2ccc(-n3nc(C)cc3C)cc2)c(=O)c2cc(I)ccc21", 6.24],
  ["CNC(=O)c1ccc(NC(=O)Cn2c(=O)c3cc(I)ccc3n(Cc3ccccc3)c2=O)cc1", 6.37],
  ["COC(=O)c1ccc(NC(=O)Cn2c(=O)c3cc(I)ccc3n(Cc3ccccc3)c2=O)cc1 [Compound 14a]", 5.91],
  ["CCOC(=O)c1ccc(NC(=O)Cn2c(=O)c3cc(I)ccc3n(Cc3ccccc3)c2=O)cc1 [Compound 14b]", 7.99],
  ["NNC(=O)c1ccc(NC(=O)Cn2c(=O)c3cc(I)ccc3n(Cc3ccccc3)c2=O)cc1", 5.82]
]}

Per the records, this compound ( O=C(Cn1c(=O)c2cc(I)ccc2n(Cc2ccccc2)c1=O)Nc1ccc(-c2nnc(S)o2)cc1 ) has Selectivity index: fold grander lethalness in HCT116 than in VERO cells equal to 6.56

* * *

test target: EGFR^T790M (Homo sapiens, UniProt P00533, T790M)
test details: In vitro EGFR^T790M kinase inhibitory assay
experimental setup: HTRF kinase assay, mean ± SD of three separate experiments
outcome measure: pIC50
Reminder that pIC50 is minus the log10 of a molar concentration.

{"columns": ["compound", "test target", "pIC50"],
 "data": [
  ["NNC(=O)c1ccc(NC(=O)Cn2c(=O)c3cc(I)ccc3n(Cc3ccccc3)c2=O)cc1", "EGFR^T790M (Homo sapiens, UniProt P00533, T790M)", 6.10]
]}

Per the records, this compound ( COC(=O)c1ccc(NC(=O)Cn2c(=O)c3cc(I)ccc3n(Cc3ccccc3)c2=O)cc1 [Compound 14a] ) has pIC50 equal to 6.12

Per the records, this compound ( C=CCn1c(=O)n(CC(=O)Nc2ccc(-n3nc(C)cc3C)cc2)c(=O)c2cc(I)ccc21 ) has pIC50 equal to 6.27

Per the records, this compound ( C=CCn1c(=O)n(CC(=O)Nc2ccc(-c3nnc(S)o3)cc2)c(=O)c2cc(I)ccc21 ) has pIC50 equal to 6.02

* * *

System: MCF-7 cell line
test details: MTT cytotoxicity assay, MCF-7
Assay type: cell-based
experimental setup: Homo sapiens, MCF7, read-out: IC50 MCF-7
pIC50: recorded values
Reminder that pIC50 is minus the log10 of a molar concentration.

Answered cases to consult:
{"columns": ["compound", "observed measurement"],
 "data": [
  ["C=CCn1c(=O)n(CC(=O)Nc2ccc(C(=O)OCC)cc2)c(=O)c2cc(I)ccc21 [Compound 6b]", 4.96],
  ["C=CCn1c(=O)n(CC(=O)Nc2ccc(C(=O)OC)cc2)c(=O)c2cc(I)ccc21 [Compound 6a]", 4.91],
  ["COC(=O)c1ccc(NC(=O)Cn2c(=O)c3cc(I)ccc3n(Cc3ccccc3)c2=O)cc1 [Compound 14a]", 5.08]
]}

Next compound, pIC50 to be filled in.
Per the records, this compound ( CNC(=O)c1ccc(NC(=O)Cn2c(=O)c3cc(I)ccc3n(Cc3ccccc3)c2=O)cc1 [Compound 13] ) has pIC50 equal to 5.08
